EXPERIMENTAL SYSTEM: α4β2* nAChR (Rattus norvegicus, UniProt P09483+P12390)
EXPERIMENTAL PROTOCOL: Competition binding assay using
QUANTITY KIND: affinity for the α4β2* subtype in words

O=C(O)/C=C/C(=O)O.O=C(c1cccc(Cl)c1)N1C[C@@H]2CNC[C@@H](C2)C1 [Compound 22]; inactive
O=C(O)/C=C/C(=O)O.O=C(c1cccc([N+](=O)[O-])c1)N1C[C@@H]2CNC[C@@H](C2)C1 [Compound 23]; inactive

###

EXPERIMENTAL SYSTEM: UniProt P36544
EXPERIMENTAL PROTOCOL: Two-electrode voltage clamp, nAChRs expressed in Xenopus oocytes
Format: cell-based
TEST CONDITIONS: 1 or 10 µM, relative to ACh control; co-applied at 1 µM with ACh
QUANTITY KIND: functional profile at α7

CC(=O)N1C[C@@H]2CNC[C@@H](C2)C1.O=C(O)/C=C/C(=O)O; agonism
CCCC(=O)N1C[C@@H]2CNC[C@@H](C2)C1.O=C(O)/C=C/C(=O)O; agonism
O=C(C1CCCC1)N1C[C@@H]2CNC[C@@H](C2)C1.O=C(O)/C=C/C(=O)O; agonism
